Value source: ChEMBL document CHEMBL3507680

test: Human HepG2 cell viability assay in 384 well format; format: toxicity, cell-based; design: dose 125 nL, time 70.5 hour; concentration not given beside the values; conditions: HepG2 cells, read-out: Inhibition
Record form. Attribute: cytotoxicity at 70.5 h. Fill in for each entry.
Give a bare numeral; the unit % is implied.

cytotoxicity at 70.5 h measured on CC(=O)N1CCCC1c1cccc(Cc2ccccc2F)n1 (centres undefined) = 35.5

cytotoxicity at 70.5 h measured on CCN1CCCC(c2c(-c3ccccc3)ncn2CCCO)C1 (centres undefined) = -8.57

cytotoxicity at 70.5 h measured on `CCN(CC)[C@@H]1CN(Cc2nccn2C)[C@@H]2CCCO[C@H]12` = -3.21

cytotoxicity at 70.5 h measured on `CCC1=N[C@@]2(CC[C@@H]3CN(Cc4ccc(Cl)cc4)C[C@@H]32)C(=O)N1C` = -15.2

cytotoxicity at 70.5 h measured on `CCOc1cc(=O)n2c(c1C(=O)OCc1cccc(C)c1)CCCC2` = -11.3

cytotoxicity at 70.5 h measured on Cc1cc(C2CCCN(CCCS(N)(=O)=O)C2)n[nH]1 (centres undefined) = -5.94

cytotoxicity at 70.5 h measured on CC(c1nc(C2CC2)no1)N1CCN(CCCN2CCCC2=O)CC1 (centres undefined) = 3.52

cytotoxicity at 70.5 h measured on `CCn1cc(-c2nn3c(C(C)C)nnc3s2)c(C)n1` = -14.2

cytotoxicity at 70.5 h measured on CC(C)=CCC1(CO)CCCN(S(=O)(=O)N2CCCC2)C1 (centres undefined) = -14.7

cytotoxicity at 70.5 h measured on `CCC(=O)N(CCC(=O)O)Cc1ccc(F)c(F)c1` = -7.91

cytotoxicity at 70.5 h measured on `CC(C)N1CCO[C@H]2CN(C(=O)c3ccncc3)C[C@H]21` = 11.9

cytotoxicity at 70.5 h measured on `Cc1ccnc(N2Cc3cnn(Cc4ccc(F)cc4)c3C2)n1` = 15.1

cytotoxicity at 70.5 h measured on `CN1C[C@@H](n2cnc(-c3ccccc3)c2-c2ncc[nH]2)C[C@H]1C(=O)O` = 5.36

cytotoxicity at 70.5 h measured on O=C1CCC(=O)N1Cc1ccc(C(=O)N2CCCC2c2cccs2)cc1 (centres undefined) = -11.1

cytotoxicity at 70.5 h measured on CCn1nc(C)c(NC(=O)CN2CCC(c3ccccc3Cl)C2)c1C (centres undefined) = 21.2

cytotoxicity at 70.5 h measured on `O=C(CN1CCCC1=O)NCc1cccnc1Oc1ccc(F)c(F)c1` = 1.24

cytotoxicity at 70.5 h measured on Cc1ncsc1C(=O)N1CC(C)Sc2ccccc21 (centres undefined) = -8.57

cytotoxicity at 70.5 h measured on Cc1ccc(CN2CCCC3(COCCN(Cc4c[nH]nn4)C3)C2)o1 (centres undefined) = 0.0506

cytotoxicity at 70.5 h measured on `COc1cccc(Cn2ncnc2COC(C)C)c1` = -15.5

cytotoxicity at 70.5 h measured on `COc1cccc(CN(Cc2ccco2)Cc2cnc(C)n2C)c1` = 3.46

cytotoxicity at 70.5 h measured on `CC(C)N(C)Cc1cnc2n1CCN(CCc1ccccc1)C2` = 4.09

cytotoxicity at 70.5 h measured on `CCn1c(CN2CCC(O)(C(=O)OC)CC2)nc2c(F)cccc21` = 31.2

cytotoxicity at 70.5 h measured on O=C(Nc1ccc(-c2ccccc2)cn1)C1CCCN1C(=O)C1CC1 (centres undefined) = 5.65

cytotoxicity at 70.5 h measured on CCN1CCCC(c2c(-c3ccccc3)ncn2CCc2c[nH]cn2)C1 (centres undefined) = -11.9

cytotoxicity at 70.5 h measured on `CC1CCN(CCNC(=O)C2CCN(S(N)(=O)=O)CC2)CC1` = -3.07

cytotoxicity at 70.5 h measured on `Cc1oc(-c2nc(C#N)c(NC(C)(C)C)o2)cc1S(=O)(=O)N1CCCC1` = -8.41

cytotoxicity at 70.5 h measured on CCc1nc(C2CCCN2CCCc2nc3ccccc3o2)no1 (centres undefined) = -0.084

cytotoxicity at 70.5 h measured on CC(Cn1cccn1)NCc1csc(COc2ccccc2)n1 (centres undefined) = -2.25

cytotoxicity at 70.5 h measured on `O=C(O)COc1ccc(Cl)cc1CN1CCC2(CCOCC2)CC1` = 2.03

cytotoxicity at 70.5 h measured on O=C(c1cccc(Cn2ccnc2)c1)N1CCCC(n2cccn2)C1 (centres undefined) = 5.77

cytotoxicity at 70.5 h measured on `CC(C)(O)CN1CCN(C(=O)c2cccn2Cc2ccncc2)CC1` = -9.5

cytotoxicity at 70.5 h measured on O=C(N1CCOCC(O)C1)C1(c2ccc(Cl)cc2)CCC1 (centres undefined) = 21.7

cytotoxicity at 70.5 h measured on `CCn1cnnc1C1CCN(C(=O)c2cc3c(s2)CCC3)CC1` = -12.3

cytotoxicity at 70.5 h measured on `N#Cc1ccc(CN2CCN(c3ccncc3Cl)CC2=O)cc1` = -4.03

cytotoxicity at 70.5 h measured on COc1ccc(N2CCC(N(C)C(=O)C(C)SC)CC2)cc1 (centres undefined) = -6.26

cytotoxicity at 70.5 h measured on `O=S(=O)(C1CC1)N1CC[C@H](OCC2CC2)[C@@H]1Cc1ccncc1` = -4.87

cytotoxicity at 70.5 h measured on `N#Cc1ccc(SCCC(=O)NC(N)=O)cc1` = -12.4

cytotoxicity at 70.5 h measured on CCC(CN1CCCC1)n1cncc1-c1cnn(-c2ccccc2)c1 (centres undefined) = -2.29

cytotoxicity at 70.5 h measured on `COCC(=O)NCCC(=O)N1CCN(S(=O)(=O)c2ccc(Br)cc2)CC1` = 13.5
